Target: Myeloperoxidase (Homo sapiens) (UniProt P05164)
Test: Inhibition of human MPO assessed as rate constant for reduction of PorFe(4)=O to PorFe(4)-OH in presence of H2O2 by stopped-flow method
measuredAttribute: K (×10⁵ /M/s)
The answer is to be given in ×10⁵ /M/s; state only the numeric part.

# example entries with known answers
OC/C=N/Nc1nncc2ccccc12
3.3
NNc1nncc2ccccc12 [HYDRALAZINE]
7.1
COc1cc(/C=N/Nc2nncc3ccccc23)ccc1O
2.8

// next entry
Which K is reported for this molecule? CN(C)c1ccc(/C=N/Nc2nncc3ccccc23)cc1 7.1

---

Listed below: Activity values for each entry.
Target: Myeloperoxidase (Homo sapiens) (UniProt P05164)
Experiment: Inhibition of human MPO assessed as residual activity in presence of H2O2
Parameters: concentration or dose not given beside the values
Numeric only. Scale: %

NNc1ccc(F)cc1
98
OC/C=N/Nc1ccc(F)cc1
97
NNC(=O)c1ccncc1
64
CN(C)c1ccc(/C=N/Nc2nncc3ccccc23)cc1
92
OC/C=N/Nc1nncc2ccccc12
18
COc1cc(/C=N/NC(=O)c2ccncc2)ccc1O [FTIVAZIDE]
91

Attention now shifts to the item below.
Please tell me: Activity of COc1cc(/C=N/Nc2ccc(F)cc2)ccc1O , system Myeloperoxidase (Homo sapiens) (UniProt P05164)? 98

---

Biological target: Myeloperoxidase (Homo sapiens)
Test: Irreversible inhibition of MPO (unknown origin)
measuredAttribute: pIC50
pIC50 field: float, defined as -log10 of concentration (mol/L).

GET /values?readout=pIC50&item= NNc1nncc2ccccc12 [HYDRALAZINE] 6.05

Let us now turn to NNC(=O)c1ccncc1 5.30

---

Target: Myeloperoxidase (Homo sapiens, UniProt P05164)
Sequence (P05164 whole entry): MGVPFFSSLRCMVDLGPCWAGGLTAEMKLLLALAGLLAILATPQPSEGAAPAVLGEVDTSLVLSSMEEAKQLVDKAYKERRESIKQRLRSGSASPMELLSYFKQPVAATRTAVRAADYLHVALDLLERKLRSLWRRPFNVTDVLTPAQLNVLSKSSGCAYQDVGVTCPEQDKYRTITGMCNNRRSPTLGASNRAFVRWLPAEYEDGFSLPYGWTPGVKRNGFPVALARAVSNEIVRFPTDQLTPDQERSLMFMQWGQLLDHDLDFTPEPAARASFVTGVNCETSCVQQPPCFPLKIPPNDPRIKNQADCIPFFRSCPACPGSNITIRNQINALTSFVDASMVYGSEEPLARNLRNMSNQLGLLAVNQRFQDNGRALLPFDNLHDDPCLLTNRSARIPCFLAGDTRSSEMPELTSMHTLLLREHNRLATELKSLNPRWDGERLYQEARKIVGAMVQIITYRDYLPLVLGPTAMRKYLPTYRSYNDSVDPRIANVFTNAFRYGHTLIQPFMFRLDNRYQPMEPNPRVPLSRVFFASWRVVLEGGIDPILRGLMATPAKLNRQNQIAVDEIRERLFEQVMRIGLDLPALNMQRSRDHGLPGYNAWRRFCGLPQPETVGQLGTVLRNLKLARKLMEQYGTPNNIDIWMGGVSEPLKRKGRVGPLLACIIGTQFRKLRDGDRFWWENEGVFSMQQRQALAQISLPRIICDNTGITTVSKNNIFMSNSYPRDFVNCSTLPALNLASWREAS
Assay: Inhibition of human MPO
Overview of recorded IC50 for various compounds
# unit: nM | format: bare number

Here are 3 compounds together with their reported answers.
NNc1nncc2ccccc12 [HYDRALAZINE]
900
COc1ccc(/C=N/Nc2ccc(F)cc2)cc1O
1130
COc1ccc(/C=N/NC(=O)c2ccncc2)cc1O
430

What does the data say about its IC50? Entry: CN(C)c1ccc(/C=N/Nc2ccc(F)cc2)cc1 3100

Also check CN(C)c1ccc(/C=N/Nc2nncc3ccccc23)cc1 80
